- protocol-description: log P by HPLC on reversed phase columns (LC-MS Method 0)
I'd be grateful if you could share measured chromatographic logP for these entries.
One number for each entry.

Below, each entry is followed by its recorded chromatographic logP result.
> print(dat)
                                   compound  measured.number
1  O=C(N[C@H]1CCOc2ccccc21)c1cnc2c(-c3cc(F)cc(F)c3F)c(F)ccc2c1N1CC(F)C1             1.93
2  O=C(N[C@H]1CCOc2ccccc21)c1cnc2c(Br)c(F)ccc2c1Cl [Intermediate 14A]             3.18

// moving on: another record for chromatographic logP
Q: Give me measured chromatographic logP, please, for this compound: O=C(N[C@H]1CCOc2ccccc21)c1cnc2c(Br)c(F)ccc2c1N1CC(F)C1 [Intermediate 15A]
Result: 1.29

Every entry's value here was drawn from patent US12559481B2.
